phosphorylation enrichment values by entry
target: Fes (UniProt P07332); experiment: phosphorylation enrichment, bacterial display (enrichment ratio); higher = better substrate or ligand; peptides without Tyr show the background;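 note: 11-residue human phosphosite peptides and single-mutation variants displayed on the E. coli surface, counted by deep sequencing, each peptide's frequency after selection divided by its frequency in the unselected input library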;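 note: frequency after pTyr selection over input frequency; kinase dosed for 20-30% of maximal phosphorylation in three min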
Sequence (P07332 whole entry, looked up): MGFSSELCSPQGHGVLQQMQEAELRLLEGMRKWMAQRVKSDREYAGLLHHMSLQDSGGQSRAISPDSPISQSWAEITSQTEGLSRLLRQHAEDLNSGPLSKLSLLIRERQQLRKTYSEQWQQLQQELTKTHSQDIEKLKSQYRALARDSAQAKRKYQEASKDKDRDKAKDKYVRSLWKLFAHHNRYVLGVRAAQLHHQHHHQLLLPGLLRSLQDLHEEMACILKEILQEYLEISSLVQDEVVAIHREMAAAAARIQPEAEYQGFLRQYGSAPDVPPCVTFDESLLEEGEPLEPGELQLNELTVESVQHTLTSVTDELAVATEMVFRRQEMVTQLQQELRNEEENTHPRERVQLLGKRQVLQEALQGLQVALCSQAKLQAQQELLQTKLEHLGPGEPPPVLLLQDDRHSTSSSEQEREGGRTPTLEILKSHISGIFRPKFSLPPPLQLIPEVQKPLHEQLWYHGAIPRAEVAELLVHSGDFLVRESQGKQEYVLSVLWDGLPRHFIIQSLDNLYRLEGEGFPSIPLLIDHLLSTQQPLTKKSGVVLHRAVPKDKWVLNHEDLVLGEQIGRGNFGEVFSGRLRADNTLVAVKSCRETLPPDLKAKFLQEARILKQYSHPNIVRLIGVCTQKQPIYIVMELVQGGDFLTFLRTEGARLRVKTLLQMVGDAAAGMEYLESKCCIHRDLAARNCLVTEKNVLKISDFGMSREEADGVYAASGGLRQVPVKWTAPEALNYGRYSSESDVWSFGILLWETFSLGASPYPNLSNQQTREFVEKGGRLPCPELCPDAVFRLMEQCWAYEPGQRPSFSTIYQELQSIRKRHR

{"columns": ["input-sequence", "phosphorylation enrichment"],
 "data": [
  ["FTFNSYFMHWV [IGHV1-46_Y51_T49N_YF]", 1.59],
  ["KGRAGYTTVAV [RET_Y752]", 0.519],
  ["TGNGYYFRVFS [MYBPC3_Y1136_I1131T]", 1.3],
  ["ALIKAYDKAVA [SMN1_Y43]", 0.578],
  ["TWEKPYECVQC [ZNF24_Y335_G331W]", 0.964],
  ["GESQGYDIMEP [MSH2_Y863]", 0.94],
  ["NLMPAYHKCIQ [CYP21A2_Y190_Y191H]", 1.01],
  ["CRPPFYHRNCM [HGD_Y334_F329C_YF]", 0.776],
  ["GLRYGYGVLGG [KRTAP20-2_Y15]", 0.605],
  ["CFVFFYSFLLK [PTEN_Y178_R173C_YF]", 1.03],
  ["LGRKLYSIAAP [ABHD12_Y345]", 1.13],
  ["FKEQGYHRLPS [RIN1_Y681_P686S_YF]", 1.49],
  ["CGLPRYRWLTH [TSPAN12_Y143_Y138C]", 0.929],
  ["VGTKRYMASEV [ACVRL1_Y375_P378S]", 0.602],
  ["HSVLNYGVCVC [JAK2_Y613_L609S]", 1.57],
  ["AQESNYRLLRQ [SLC20A2_Y377_R382Q]", 0.737],
  ["QDGYSYPSRQM [LDLR_Y847]", 1.21],
  ["HISGVYKLPPD [ANGPTL7_Y145_R140H]", 1.33],
  ["GLSAPYVKIHL [SYT2_Y309_D307A]", 0.785]
]}
